- tested-target: rat SCD (Rattus norvegicus, UniProt P07308)
- Construct: rat liver microsomes (RLMs) isolated from rats fed a […] to induce SCD expression; assay run at PureHoney Technologies
- Sequence (P07308 whole entry): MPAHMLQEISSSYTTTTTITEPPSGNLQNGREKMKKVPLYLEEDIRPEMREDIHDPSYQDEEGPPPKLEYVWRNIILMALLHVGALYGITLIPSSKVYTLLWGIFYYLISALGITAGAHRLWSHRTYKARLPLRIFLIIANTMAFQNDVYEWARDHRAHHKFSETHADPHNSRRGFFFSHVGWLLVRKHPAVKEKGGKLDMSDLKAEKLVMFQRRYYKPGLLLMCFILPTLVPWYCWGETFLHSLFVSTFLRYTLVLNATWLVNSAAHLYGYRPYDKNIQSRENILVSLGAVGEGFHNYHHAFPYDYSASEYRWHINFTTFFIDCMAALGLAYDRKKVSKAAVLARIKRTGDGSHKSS
- experiment: SCD enzyme assay in SCD-induced rat liver microsomes (RLM)
- assay-setup: C17:0-CoA substrate, Rapid-Fire mass spectrometry
reported-property: pIC50
pIC50 here is simply -log10 of the concentration when that concentration is written in mol/L.

Kindly note the recorded pIC50 for Cc1nnc(-c2ccc(N3CCC(Oc4cc(F)ccc4Cl)CC3)nn2)o1 [CAY10566] , which is 8.96
